Consider the following compounds; for each one, report its IC50.
ASSAY_TARGET: Phospho-N-acetylmuramoyl-pentapeptide-transferase (Aquifex aeolicus (strain VF5), UniProt O66465)
Sequence (O66465 whole entry): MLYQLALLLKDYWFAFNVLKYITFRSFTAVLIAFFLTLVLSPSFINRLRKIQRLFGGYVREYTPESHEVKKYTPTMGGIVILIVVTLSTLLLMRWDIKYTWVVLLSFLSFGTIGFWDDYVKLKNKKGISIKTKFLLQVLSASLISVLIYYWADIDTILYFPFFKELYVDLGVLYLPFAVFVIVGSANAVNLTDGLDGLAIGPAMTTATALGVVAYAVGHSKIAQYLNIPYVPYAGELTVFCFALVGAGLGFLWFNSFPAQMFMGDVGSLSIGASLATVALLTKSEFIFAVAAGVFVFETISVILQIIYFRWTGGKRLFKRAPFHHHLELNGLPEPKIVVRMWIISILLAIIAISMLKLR
ASSAY_COMMENT: Inhibition of Aquifex aeolicus MraY using UDP-MurNAc-pentapeptide as substrate measured after 5 mins by UMP-Glo glycosyltransferase assay
Respond with the bare value in µM.

# IC50 (compound: NC[C@H]1O[C@@H](O[C@H]([C@@H]2CC[C@H](n3ccc(=O)[nH]c3=O)C2)[C@H](NC(=O)OCc2ccccc2)C(=O)O)[C@H](O)[C@@H]1O ) is 500

The compound listed as CCCCCCCCCCCCCCCCC(=O)N[C@@H](CCCNC(=N)N)C(=O)NCCCN[C@H](C(=O)OC)[C@H](O[C@@H]1O[C@H](CN)[C@@H](O)[C@H]1O)[C@@H]1CC[C@H](n2ccc(=O)[nH]c2=O)C1 shows IC50 equal to 75

Documented IC50 of CC(C)(C)OC(=O)[C@@H](NC(=O)OCc1ccccc1)[C@H](O[C@@H]1O[C@H](CN)[C@@H](O)[C@H]1O)[C@@H]1CC[C@H](n2ccc(=O)[nH]c2=O)C1 : 340
